molecular target: T1, human-CD40 monomer (human, UniProt P25942 21-193, limits assumed); assay: SPR 2 pt screen, Ab on protein A
T1 construct: also called hCD40-monomer; human-CD40-monomer protein
T1 sequence (P25942 21-193 limits assumed): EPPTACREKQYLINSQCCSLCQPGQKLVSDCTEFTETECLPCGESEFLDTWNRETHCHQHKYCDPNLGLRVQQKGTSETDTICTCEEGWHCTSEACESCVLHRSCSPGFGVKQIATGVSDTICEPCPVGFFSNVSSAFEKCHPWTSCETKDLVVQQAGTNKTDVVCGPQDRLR
Quick reference for kon among some binders
Entry rule: numbers only, all in M⁻¹ s⁻¹.

{"BINDER": "humanized Y1238 hz54 (hz-HC11 / hz-LC4), IgG1.3f (antibody, V domains shown, IgG1.3f heavy constant, common CL; expression supernatant; also called Sup 54) VH: QVQLVQSGAEVKKPGASVKVSCKASGYAFTNYLIEWVRQRPGQGLEWMGVINPGSGGTNYNEKFKGRVTMTRDKSSSTAYMELSRLRSDDTAVYFCARSQLGRRFDYWGQGTLVTVSS VL: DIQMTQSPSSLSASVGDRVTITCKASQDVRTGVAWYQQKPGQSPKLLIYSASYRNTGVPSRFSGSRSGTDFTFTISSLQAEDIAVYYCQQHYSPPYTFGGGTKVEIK", "kon [M⁻¹ s⁻¹]": 38000}
{"BINDER": "humanized Y1238 hz35 (hz-HC7 / hz-LC5), IgG1.3f (antibody, V domains shown, IgG1.3f heavy constant, common CL; expression supernatant; also called Sup 35) VH: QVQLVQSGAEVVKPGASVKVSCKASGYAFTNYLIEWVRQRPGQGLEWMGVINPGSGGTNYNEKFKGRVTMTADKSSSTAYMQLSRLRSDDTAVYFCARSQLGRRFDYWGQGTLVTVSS VL: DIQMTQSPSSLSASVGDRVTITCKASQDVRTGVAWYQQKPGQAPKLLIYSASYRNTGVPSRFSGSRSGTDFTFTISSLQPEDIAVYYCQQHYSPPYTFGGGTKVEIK", "kon [M⁻¹ s⁻¹]": 40000}
{"BINDER": "humanized Y1238 hz33 (hz-HC7 / hz-LC3), IgG1.3f (antibody, V domains shown, IgG1.3f heavy constant, common CL; expression supernatant; also called Sup 33) VH: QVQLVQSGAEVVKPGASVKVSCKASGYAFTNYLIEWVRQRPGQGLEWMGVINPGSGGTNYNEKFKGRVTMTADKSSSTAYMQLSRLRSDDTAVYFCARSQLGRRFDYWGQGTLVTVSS VL: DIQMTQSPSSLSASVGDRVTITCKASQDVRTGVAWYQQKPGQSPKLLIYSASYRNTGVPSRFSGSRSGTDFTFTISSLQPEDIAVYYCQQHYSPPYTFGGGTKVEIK", "kon [M⁻¹ s⁻¹]": 40000}

API: the following record is the query input.
Reported kon for humanized Y1238 hz55 (hz-HC11 / hz-LC5), IgG1.3f (antibody, V domains shown, IgG1.3f heavy constant, common CL; expression supernatant; also called Sup 55) VH: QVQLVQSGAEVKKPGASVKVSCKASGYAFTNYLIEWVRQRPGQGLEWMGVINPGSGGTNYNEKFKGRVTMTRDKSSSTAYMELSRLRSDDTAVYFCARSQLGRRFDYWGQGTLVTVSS VL: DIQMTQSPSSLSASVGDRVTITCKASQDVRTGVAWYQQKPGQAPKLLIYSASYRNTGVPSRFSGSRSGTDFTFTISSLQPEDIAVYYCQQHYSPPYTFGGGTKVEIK : what is it?
37000
